This listing pairs molecules with measured melting point.

>  <molecule>
O=S1(=O)C=CC(N=C=S)C1 (centres undefined)

>  <melting point>
61 to 63 °C

$$$$
>  <molecule>
O=C(O)c1ccc(COc2cccc(Br)c2)o1

>  <melting point>
171 to 173 °C

$$$$
>  <molecule>
CCc1nc(N)sc1C

>  <melting point>
73 to 75 °C

$$$$
>  <molecule>
O=C(O)COc1ccc2c(c1)CCC2

>  <melting point>
154 to 156 °C

$$$$
>  <molecule>
Cc1cc(C)c2c(C(=O)O)cc(C3CC3)nc2c1

>  <melting point>
217 to 219 °C

$$$$
>  <molecule>
O=C(O)CCN1C(=O)C(=Cc2ccc(F)cc2)SC1=S

>  <melting point>
135 to 137 °C

$$$$
>  <molecule>
CCN(CC)S(=O)(=O)c1cc(C(=O)O)ccc1F

>  <melting point>
159 to 161 °C

$$$$
>  <molecule>
COc1ccc(-c2csc(NC(=O)C(C)Cl)n2)cc1 (centres undefined)

>  <melting point>
124 to 126 °C

$$$$
>  <molecule>
O=C(O)C#Cc1ccc2c(c1)OCO2

>  <melting point>
165 to 167 °C

$$$$
>  <molecule>
CCOc1ccccc1OCCC(=O)O

>  <melting point>
97 to 99 °C

$$$$
>  <molecule>
CS(=O)(=O)c1ccc(Cl)c([N+](=O)[O-])c1

>  <melting point>
121 to 123 °C

$$$$
>  <molecule>
NC(CN1CCCC1)=NO

>  <melting point>
142 to 144 °C

$$$$
>  <molecule>
CCc1ccc(N(C(C)=O)c2nc(CCl)cs2)cc1

>  <melting point>
195 to 197 °C

$$$$
>  <molecule>
COC(=O)C1(O)CCN(Cc2ccccc2)CC1

>  <melting point>
75 to 77 °C

$$$$
>  <molecule>
CC(C)(C)OC(=O)N1CCN(c2nc(N)ns2)CC1

>  <melting point>
196 to 198 °C

$$$$
>  <molecule>
O=C(O)c1sccc1S(=O)(=O)N1CCCCC1

>  <melting point>
111 to 113 °C

$$$$
>  <molecule>
Cc1cccc(F)c1C#N

>  <melting point>
45 to 47 °C

$$$$
>  <molecule>
COc1ccc(C(=O)O)cc1S(N)(=O)=O

>  <melting point>
283 to 285 °C

$$$$
>  <molecule>
Cc1ccc2ccccc2c1S(=O)(=O)Cl

>  <melting point>
76 to 78 °C

$$$$
>  <molecule>
Nc1n[nH]c2ccccc12

>  <melting point>
152 to 154 °C

$$$$
>  <molecule>
COc1ccc2oc(C(=O)O)c(C)c2c1

>  <melting point>
202 to 204 °C

$$$$
>  <molecule>
N#Cc1ccc(N2CCCC2=O)cc1

>  <melting point>
106 to 108 °C

$$$$
>  <molecule>
NC1(CO)CCc2ccccc21 (centres undefined)

>  <melting point>
100 to 102 °C

$$$$
>  <molecule>
NC(=S)CCCc1ccccc1

>  <melting point>
59 to 61 °C

$$$$
>  <molecule>
COCCCC(=O)c1ccc(Br)cc1

>  <melting point>
53 to 55 °C

$$$$
>  <molecule>
Sc1nnc(N2CCCCC2)s1

>  <melting point>
165 to 167 °C

$$$$
>  <molecule>
Nc1nc(-c2ccccc2Cl)ns1

>  <melting point>
119 to 121 °C

$$$$
>  <molecule>
NC(C(=O)O)c1cccc(C(F)(F)F)c1 (centres undefined)

>  <melting point>
192 to 194 °C

$$$$
>  <molecule>
COC(=O)Cc1c(C)n[nH]c1C

>  <melting point>
51 to 55 °C

$$$$
